- Tested on: Staphylococcus aureus
- testMethodNotes: In vitro antibacterial activity against clinical isolates methicillin-resistant Staphylococcus aureus was determined
- Assay type: functional
property: MIC80 (µg/mL)

# compound, studySystem, unitText, observedMeasurement
measured = [
    ("CCC(=O)C[n+]1ccc(SCC2=C(C(=O)O)N3C(=O)[C@@H](NC(=O)/C(=N\\OC4CCCC4)c4csc(N)n4)[C@H]3CO2)cc1.O=S(=O)([O-])O", "Staphylococcus aureus", "µg/mL", 6.25),
    ("CN[C@H](CC(C)C)C(=O)N[C@H]1C(=O)N[C@@H](CC(N)=O)C(=O)N[C@H]2C(=O)N[C@H]3C(=O)N[C@H](C(=O)N[C@H](C(=O)O)c4cc(O)cc(O)c4-c4cc3ccc4O)[C@H](O)c3ccc(c(Cl)c3)Oc3cc2cc(c3O[C@@H]2O[C@H](CO)[C@@H](O)[C@H](O)[C@H]2O[C@H]2C[C@](C)(N)[C@H](O)[C@H](C)O2)Oc2ccc(cc2Cl)[C@H]1O [VANCOMYCIN]", "Staphylococcus aureus", "µg/mL", 1.56),
    ("CO/N=C(\\C(=O)N[C@@H]1C(=O)N2C(C(=O)[O-])=C(C[n+]3cccc4c3CCC4)CS[C@H]12)c1csc(N)n1 [CEFPIROME]", "Staphylococcus aureus", "µg/mL", 100),
    ("CO[C@@]1(NC(=O)CSC(F)F)C(=O)N2C(C(=O)O)=C(CSc3nnnn3CCO)CO[C@@H]21 [FLOMOXEF]", "Staphylococcus aureus", "µg/mL", 100),
]

###

- Tested on: Enterococcus faecalis
- testMethodNotes: Antibacterial activity was determined against Enterococcus faecalis ATCC 21212 (Gram-positive)
- Type: functional
The reader will find reported log10 of MIC values listed item by item below.
property: log10 of MIC (log10 of the value in µg/mL)

# mol, studySystem, log10 of MIC
measured = [
    ("CC(=O)C[n+]1ccc(SCC2=C(C(=O)O)N3C(=O)[C@@H](NC(=O)/C(=N\\OC4CCCC4)c4csc(N)n4)[C@H]3CO2)cc1.O=S(=O)([O-])O", "Enterococcus faecalis", -0.11),
    ("Nc1nc(/C(=N/OC2CCCC2)C(=O)N[C@@H]2C(=O)N3C(C(=O)O)=C(CSc4cc[n+](CC(=O)N5CCC(O)CC5)cc4)OC[C@H]23)cs1.O=S(=O)([O-])O", "Enterococcus faecalis", 0.50),
    ("C=CC[n+]1ccc(SCC2=C(C(=O)O)N3C(=O)[C@@H](NC(=O)/C(=N\\OC4CCCC4)c4csc(N)n4)[C@H]3CO2)cc1.O=S(=O)([O-])O", "Enterococcus faecalis", -0.11),
    ("CC(C)=CC[n+]1ccc(SCC2=C(C(=O)O)N3C(=O)[C@@H](NC(=O)/C(=N\\OC4CCCC4)c4csc(N)n4)[C@H]3CO2)cc1.O=S(=O)([O-])O", "Enterococcus faecalis", 0.19),
    ("CN(C)C(=O)C[n+]1ccc(SCC2=C(C(=O)O)N3C(=O)[C@@H](NC(=O)/C(=N\\OC4CCCC4)c4csc(N)n4)[C@H]3CO2)cc1.O=S(=O)([O-])O", "Enterococcus faecalis", 0.19),
    ("CN[C@H](CC(C)C)C(=O)N[C@H]1C(=O)N[C@@H](CC(N)=O)C(=O)N[C@H]2C(=O)N[C@H]3C(=O)N[C@H](C(=O)N[C@H](C(=O)O)c4cc(O)cc(O)c4-c4cc3ccc4O)[C@H](O)c3ccc(c(Cl)c3)Oc3cc2cc(c3O[C@@H]2O[C@H](CO)[C@@H](O)[C@H](O)[C@H]2O[C@H]2C[C@](C)(N)[C@H](O)[C@H](C)O2)Oc2ccc(cc2Cl)[C@H]1O", "Enterococcus faecalis", -0.11),
    ("Nc1nc(/C(=N/OC2CCCC2)C(=O)N[C@@H]2C(=O)N3C(C(=O)O)=C(CSc4cc[n+](CC(=O)N5CCOCC5)cc4)OC[C@H]23)cs1.O=S(=O)([O-])O", "Enterococcus faecalis", 0.19),
    ("Nc1nc(/C(=N/OC2CCCC2)C(=O)N[C@@H]2C(=O)N3C(C(=O)O)=C(CSc4cc[n+](CC(=O)c5ccccc5)cc4)OC[C@H]23)cs1.O=S(=O)([O-])O", "Enterococcus faecalis", 0.19),
    ("CO[C@@]1(NC(=O)CSC(F)F)C(=O)N2C(C(=O)O)=C(CSc3nnnn3CCO)CO[C@@H]21", "Enterococcus faecalis", 2.00),
    ("C[n+]1ccc(SCC2=C(C(=O)O)N3C(=O)[C@@H](NC(=O)/C(=N\\OC4CCCC4)c4csc(N)n4)[C@H]3CO2)cc1.O=S(=O)([O-])O", "Enterococcus faecalis", 0.19),
    ("CNC(=O)C[n+]1ccc(SCC2=C(C(=O)O)N3C(=O)[C@@H](NC(=O)/C(=N\\OC4CCCC4)c4csc(N)n4)[C@H]3CO2)cc1.O=S(=O)([O-])O", "Enterococcus faecalis", 0.19),
    ("NC(=O)C[n+]1ccc(SCC2=C(C(=O)O)N3C(=O)[C@@H](NC(=O)/C(=N\\OC4CCCC4)c4csc(N)n4)[C@H]3CO2)cc1.O=S(=O)([O-])O", "Enterococcus faecalis", 0.19),
    ("CC(C)(C)NC(=O)C[n+]1ccc(SCC2=C(C(=O)O)N3C(=O)[C@@H](NC(=O)/C(=N\\OC4CCCC4)c4csc(N)n4)[C@H]3CO2)cc1.O=S(=O)([O-])O", "Enterococcus faecalis", 0.19),
    ("N#CC[n+]1ccc(SCC2=C(C(=O)O)N3C(=O)[C@@H](NC(=O)/C(=N\\OC4CCCC4)c4csc(N)n4)[C@H]3CO2)cc1.O=S(=O)([O-])O", "Enterococcus faecalis", 0.19),
    ("CC(C)(C)C(=O)C[n+]1ccc(SCC2=C(C(=O)O)N3C(=O)[C@@H](NC(=O)/C(=N\\OC4CCCC4)c4csc(N)n4)[C@H]3CO2)cc1.O=S(=O)([O-])O", "Enterococcus faecalis", 0.19),
    ("C#CC[n+]1ccc(SCC2=C(C(=O)O)N3C(=O)[C@@H](NC(=O)/C(=N\\OC4CCCC4)c4csc(N)n4)[C@H]3CO2)cc1.O=S(=O)([O-])O", "Enterococcus faecalis", 0.19),
    ("CO/N=C(\\C(=O)N[C@@H]1C(=O)N2C(C(=O)[O-])=C(C[n+]3cccc4c3CCC4)CS[C@H]12)c1csc(N)n1", "Enterococcus faecalis", 1.40),
    ("CCC(=O)C[n+]1ccc(SCC2=C(C(=O)O)N3C(=O)[C@@H](NC(=O)/C(=N\\OC4CCCC4)c4csc(N)n4)[C@H]3CO2)cc1.O=S(=O)([O-])O", "Enterococcus faecalis", 0.19),
]

###

- Test system: Staphylococcus epidermidis
- testMethodNotes: Antibacterial activity was determined against Staphylococcus epidermidis ATCC 12228 (Gram-positive)
- Format: functional
Reported MIC values are given for each entry in this list.

# compound, unitText, MIC
data = [
    ("Nc1nc(/C(=N/OC2CCCC2)C(=O)N[C@@H]2C(=O)N3C(C(=O)O)=C(CSc4cc[n+](CC(=O)c5ccccc5)cc4)OC[C@H]23)cs1.O=S(=O)([O-])O", "µg/mL", 0.39),
    ("CC(C)=CC[n+]1ccc(SCC2=C(C(=O)O)N3C(=O)[C@@H](NC(=O)/C(=N\\OC4CCCC4)c4csc(N)n4)[C@H]3CO2)cc1.O=S(=O)([O-])O", "µg/mL", 0.2),
    ("CO[C@@]1(NC(=O)CSC(F)F)C(=O)N2C(C(=O)O)=C(CSc3nnnn3CCO)CO[C@@H]21 [FLOMOXEF]", "µg/mL", 0.39),
    ("C#CC[n+]1ccc(SCC2=C(C(=O)O)N3C(=O)[C@@H](NC(=O)/C(=N\\OC4CCCC4)c4csc(N)n4)[C@H]3CO2)cc1.O=S(=O)([O-])O", "µg/mL", 0.1),
    ("N#CC[n+]1ccc(SCC2=C(C(=O)O)N3C(=O)[C@@H](NC(=O)/C(=N\\OC4CCCC4)c4csc(N)n4)[C@H]3CO2)cc1.O=S(=O)([O-])O", "µg/mL", 0.2),
    ("CN(C)C(=O)C[n+]1ccc(SCC2=C(C(=O)O)N3C(=O)[C@@H](NC(=O)/C(=N\\OC4CCCC4)c4csc(N)n4)[C@H]3CO2)cc1.O=S(=O)([O-])O", "µg/mL", 0.39),
    ("CNC(=O)C[n+]1ccc(SCC2=C(C(=O)O)N3C(=O)[C@@H](NC(=O)/C(=N\\OC4CCCC4)c4csc(N)n4)[C@H]3CO2)cc1.O=S(=O)([O-])O", "µg/mL", 0.2),
    ("CO/N=C(\\C(=O)N[C@@H]1C(=O)N2C(C(=O)[O-])=C(C[n+]3cccc4c3CCC4)CS[C@H]12)c1csc(N)n1 [CEFPIROME]", "µg/mL", 0.39),
]
